Catalogue of Kidney (% ID/g at 1 h p.i.) readings, one per entry.
System: NCI-H460 tumor
testDetails: In vivo biodistribution in NCI-H460 tumor bearing mice
conditionParameters: 1 h p.i.

Inquiry: Query (compound): N[C@@H](CC(Cc1ccc(OCCC[18F])cc1)C(=O)O)C(=O)O (stereo partly drawn) [[^18F]-4] ; field requested: Kidney (% ID/g at 1 h p.i.)
Reply text: 1.0 ± 0.3 % ID/g

###

Catalogue of T/Muscle readings, one per entry.
Tested on: NCI-H460 tumor
testDetails: In vivo biodistribution in NCI-H460 tumor bearing mice
conditionParameters: 1 h post injection
I'd appreciate a reply containing only the number, no unit.

Here are 3 molecules together with their reported answers.
molecule	T/Muscle
N[C@@H](C[C@H](CCCc1ccc(OCC[18F])cc1)C(=O)O)C(=O)O [[^18F]-25]	32.2
N[C@@H](CC(Cc1ccc(CCC[18F])cc1)C(=O)O)C(=O)O (stereo partly drawn) [[^18F]-9]	61.7
N[C@@H](CC(Cc1ccc(NCCC[18F])cc1)C(=O)O)C(=O)O (stereo partly drawn) [[^18F]-8]	46.3

Inquiry: Query (molecule): N[C@@H](CC(Cc1ccc(O[C@H]2C[C@@H]([18F])C2)cc1)C(=O)O)C(=O)O (stereo partly drawn) [[^18F]-22] ; field requested: T/Muscle
Reply text: 32.3

Inquiry: Please give the result for N[C@@H](CC(Cc1ccc(OCCC[18F])cc1)C(=O)O)C(=O)O (stereo partly drawn) [[^18F]-4] too.
Reply text: 38.8

Inquiry: Please give the result for N[C@@H](C[C@H](Cc1ccc(OC[18F])cc1)C(=O)O)C(=O)O [[^18F]-48] too.
Reply text: 30.4

Inquiry: Please give the result for N[C@@H](CCC(Cc1ccc(NCC[18F])cc1)C(=O)O)C(=O)O (stereo partly drawn) [[^18F]-52] too.
Reply text: 95.4

Inquiry: Please give the result for N[C@@H](CCC(Cc1ccc(OC[18F])cc1)C(=O)O)C(=O)O (single isomer, unassigned) [[^18F]-41 C5-2] too.
Reply text: 107.3

Inquiry: Please give the result for N[C@H](CCC(Cc1ccc(OCC[18F])cc1)C(=O)O)C(=O)O (stereo partly drawn) [[^18F]-16] too.
Reply text: 54.2

###

System: NCI-H460 tumor
testDetails: PET imaging in NCI-H460 tumor bearing nude-rats
Type: in vivo
conditionParameters: PET ROI analysis, 1 h p.i.
measurementKind: Tumor (Max % ID/g at 1 h p.i.) (% ID/g)
Kindly answer with a numeric value in % ID/g, unit omitted.

Here are 4 compounds together with their reported answers.
compound	Tumor (Max % ID/g at 1 h p.i.), % ID/g
N[C@@H](CC(Cc1ccc(O[C@H]2C[C@@H]([18F])C2)cc1)C(=O)O)C(=O)O (some centres unmarked) [[^18F]-22]	0.9
N[C@@H](CC(Cc1ccc(OCCC[18F])cc1)C(=O)O)C(=O)O (some centres unmarked) [[^18F]-4]	1
N[C@@H](CC(Cc1ccc(OC(CO)C[18F])cc1)C(=O)O)C(=O)O (some centres unmarked) [[^18F]-60]	2.2
N[C@@H](CCC(Cc1ccc(OCC[18F])cc1)C(=O)O)C(=O)O (some centres unmarked) [[^18F]-12]	2.2

Continue with the next compound.
Inquiry: Query (compound): N[C@@H](CCC(Cc1ccc(OC[18F])cc1)C(=O)O)C(=O)O (single isomer, unassigned) [[^18F]-41 C5-2] ; field requested: Tumor (Max % ID/g at 1 h p.i.)
Reply text: 4.4

###

Tested on: NCI-H460 tumor
testDetails: PET imaging in NCI-H460 tumor bearing nude-rats
Type: in vivo
conditionParameters: PET ROI analysis, 1 h p.i.
Catalogue of Kidney (% ID/g at 1 h p.i.) readings, one per entry.
Form entry: enter the amount, then its unit.

Here are 2 compounds together with their reported answers.
compound	Kidney (% ID/g at 1 h p.i.)
N[C@@H](CC(Cc1ccc(C[18F])cc1)C(=O)O)C(=O)O (stereo partly shown) [[^18F]-66]	2.9 % ID/g
N[C@@H](C[C@H](Cc1ccc(OC[18F])cc1)C(=O)O)C(=O)O [[^18F]-48]	0.9 % ID/g

Inquiry: Query (compound): N[C@@H](CC(Cc1ccc(OC(CO)C[18F])cc1)C(=O)O)C(=O)O (stereo partly shown) [[^18F]-60] ; field requested: Kidney (% ID/g at 1 h p.i.)
Reply text: 2.2 % ID/g

Inquiry: Please give the result for N[C@@H](C[C@@H](Cc1ccc(OC[18F])cc1)C(=O)O)C(=O)O [[^18F]-50] too.
Reply text: 1.0 % ID/g

###

Catalogue of Tumor (Mean % ID/g at 1 h p.i.) readings, one per entry.
Test system: NCI-H460 tumor
testDetails: PET imaging in NCI-H460 tumor bearing nude-rats
Format: in vivo
conditionParameters: PET ROI analysis, 1 h p.i.
Kindly answer with a numeric value in % ID/g, unit omitted.

Here are 7 molecules together with their reported answers.
molecule	unitText	Tumor (Mean % ID/g at 1 h p.i.)
N[C@@H](CCC(Cc1ccc(OCC[18F])cc1)C(=O)O)C(=O)O (some centres unmarked) [[^18F]-12 C5-2]	% ID/g	1.6
N[C@@H](CCC(Cc1ccc(OCC[18F])cc1)C(=O)O)C(=O)O (some centres unmarked) [[^18F]-12 C5-1]	% ID/g	1.3
N[C@@H](CCC(Cc1ccc(OC[18F])cc1)C(=O)O)C(=O)O (some centres unmarked) [[^18F]-41]	% ID/g	1.6
N[C@@H](CC(Cc1ccc(OCCC[18F])cc1)C(=O)O)C(=O)O (some centres unmarked) [[^18F]-4]	% ID/g	0.7
N[C@@H](CC(Cc1ccc(OC(CO)C[18F])cc1)C(=O)O)C(=O)O (some centres unmarked) [[^18F]-60]	% ID/g	1.0
N[C@@H](CCC(Cc1ccc(OC[18F])cc1)C(=O)O)C(=O)O (single isomer, unassigned) [[^18F]-41 C5-1]	% ID/g	1.2
N[C@@H](CC(Cc1ccc(O[C@H]2C[C@@H]([18F])C2)cc1)C(=O)O)C(=O)O (some centres unmarked) [[^18F]-22]	% ID/g	0.3

Continue with the next molecule.
Inquiry: Hello, I am looking for reported Tumor (Mean % ID/g at 1 h p.i.) with NCI-H460 tumor for N[C@@H](CC(Cc1ccc(OCC[18F])c[n+]1[O-])C(=O)O)C(=O)O (some centres unmarked) [[^18F]-35] . Could you help?
Reply text: 0.2

###

Test system: NCI-H460 tumor
testDetails: In vivo biodistribution in NCI-H460 tumor bearing mice
conditionParameters: 1 h post injection
Threshold rule: T/Blood greater than or equal to 20 is y; below that, n.

molecule	class
N[C@@H](CCC(Cc1ccc(OCC[18F])cn1)C(=O)O)C(=O)O (stereo partly drawn) [[^18F]-32]	n
N[C@@H](CCC(Cc1ccc(NCC[18F])cc1)C(=O)O)C(=O)O (stereo partly drawn) [[^18F]-52]	y
N[C@@H](CCC(Cc1ccc(OC[18F])cc1)C(=O)O)C(=O)O (single isomer, unassigned) [[^18F]-41 C5-1]	y
N[C@@H](CCC(Cc1ccc(OCC[18F])cc1)C(=O)O)C(=O)O (stereo partly drawn) [[^18F]-12]	y
N[C@@H](CC(Cc1ccc(OCC[18F])c(O)c1)C(=O)O)C(=O)O (stereo partly drawn) [[^18F]-44]	y

Inquiry: Reported T/Blood reaches at least 20 for N[C@@H](C[C@H](Cc1ccc(OC[18F])cc1)C(=O)O)C(=O)O [[^18F]-48] ?
Reply text: y

Inquiry: Please give the result for N[C@@H](C[C@H](CCCc1ccc(OCC[18F])cc1)C(=O)O)C(=O)O [[^18F]-25] too.
Reply text: n

Inquiry: Please give the result for N[C@@H](CC(Cc1ccc(O[C@H]2C[C@@H]([18F])C2)cc1)C(=O)O)C(=O)O (stereo partly drawn) [[^18F]-22] too.
Reply text: n

###

Test system: NCI-H460 tumor
testDetails: PET imaging in NCI-H460 tumor bearing nude-rats
Assay type: in vivo
conditionParameters: PET ROI analysis, 1 h p.i.
measurementKind: Liver (% ID/g at 1 h p.i.) (% ID/g)
Kindly answer with a numeric value in % ID/g, unit omitted.

Here are 2 molecules together with their reported answers.
molecule	unitText	Liver (% ID/g at 1 h p.i.)
N[C@@H](CCC(Cc1ccc(OC[18F])cc1)C(=O)O)C(=O)O (single isomer, unassigned) [[^18F]-41 C5-1]	% ID/g	0.4
N[C@@H](CCC(Cc1ccc(OCC[18F])cc1)C(=O)O)C(=O)O (stereo partly drawn) [[^18F]-12 C5-2]	% ID/g	0.5

Inquiry: Query (molecule): N[C@@H](CCC(Cc1ccc(OCC[18F])cc1)C(=O)O)C(=O)O (stereo partly drawn) [[^18F]-12 C5-1] ; field requested: Liver (% ID/g at 1 h p.i.)
Reply text: 1.2

Origin of the recorded values: patent US9238631B2
